Consider the following compounds; for each one, report its IC50.
TEST SYSTEM: human lysosomal N-acetyl-β-hexosaminidase A (Homo sapiens, UniProt P06865)
Construct: endogenous in cells
Sequence (P06865 89-529): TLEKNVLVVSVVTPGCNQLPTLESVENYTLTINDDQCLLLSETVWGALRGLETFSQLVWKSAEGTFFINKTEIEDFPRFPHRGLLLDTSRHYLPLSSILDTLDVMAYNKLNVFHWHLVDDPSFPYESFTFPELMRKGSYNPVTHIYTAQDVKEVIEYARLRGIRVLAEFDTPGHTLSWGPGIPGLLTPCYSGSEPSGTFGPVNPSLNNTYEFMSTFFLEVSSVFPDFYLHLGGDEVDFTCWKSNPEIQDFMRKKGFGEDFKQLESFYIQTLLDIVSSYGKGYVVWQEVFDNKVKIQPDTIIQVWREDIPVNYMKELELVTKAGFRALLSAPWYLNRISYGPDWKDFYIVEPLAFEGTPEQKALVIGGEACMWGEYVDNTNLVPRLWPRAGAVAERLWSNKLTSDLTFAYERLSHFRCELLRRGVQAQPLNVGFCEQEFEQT
Sequence (P07686 122-311 partner limits assumed): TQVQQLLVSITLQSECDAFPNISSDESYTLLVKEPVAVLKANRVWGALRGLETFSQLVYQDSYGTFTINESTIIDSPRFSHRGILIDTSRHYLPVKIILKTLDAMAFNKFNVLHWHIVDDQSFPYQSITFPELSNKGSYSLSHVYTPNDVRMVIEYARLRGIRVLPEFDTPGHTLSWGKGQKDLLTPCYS
Sequence (P07686 315-556 partner limits assumed): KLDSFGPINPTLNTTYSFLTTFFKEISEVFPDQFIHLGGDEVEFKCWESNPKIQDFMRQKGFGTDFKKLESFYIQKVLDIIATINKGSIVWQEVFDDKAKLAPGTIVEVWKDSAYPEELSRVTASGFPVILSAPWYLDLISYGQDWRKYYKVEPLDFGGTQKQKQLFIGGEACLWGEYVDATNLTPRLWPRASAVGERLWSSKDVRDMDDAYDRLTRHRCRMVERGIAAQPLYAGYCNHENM
METHOD DESCRIPTION: Human N-acetyl-β-hexosaminidase A activity in fibroblast homogenate (4-MU N-acetyl-β-glucosaminide-6-sulfate substrate)
RUN PARAMETERS: normal human skin fibroblast homogenate, pH 4.4, 37 °C, 60 min; read-out: IC50 with human lysosomal N-acetyl-β-D-hexosaminidase A
Numeric answer only, unit nM assumed.

Ask: Give the reported IC50 for CC(=O)NC1CNC(CO)C(O)C1O (stereo not drawn) [compound 1, 2-acetamido-1,2-dideoxynojirimycin, reference compound] (system: human lysosomal N-acetyl-β-hexosaminidase A (Homo sapiens, UniProt P06865)).
Result: 31000

Ask: Note, next up: CCCCCCNC1C(CO)C(O)C(O)C1NC(C)=O (stereo not drawn) [compound 21]
Result: 880

Ask: Note, next up: CC(=O)NC1C(O)C(O)C(CO)C1NCCCCCCNS(=O)(=O)c1cccc2c(N(C)C)cccc12 (stereo not drawn) [compound 25]
Result: 300

----------
TEST SYSTEM: Streptomyces plicatus N-acetyl-β-hexosaminidase (SpHex) (Streptomyces plicatus)
Construct: made in house; host or cells: E. coli
Sequence (O85361 1-506): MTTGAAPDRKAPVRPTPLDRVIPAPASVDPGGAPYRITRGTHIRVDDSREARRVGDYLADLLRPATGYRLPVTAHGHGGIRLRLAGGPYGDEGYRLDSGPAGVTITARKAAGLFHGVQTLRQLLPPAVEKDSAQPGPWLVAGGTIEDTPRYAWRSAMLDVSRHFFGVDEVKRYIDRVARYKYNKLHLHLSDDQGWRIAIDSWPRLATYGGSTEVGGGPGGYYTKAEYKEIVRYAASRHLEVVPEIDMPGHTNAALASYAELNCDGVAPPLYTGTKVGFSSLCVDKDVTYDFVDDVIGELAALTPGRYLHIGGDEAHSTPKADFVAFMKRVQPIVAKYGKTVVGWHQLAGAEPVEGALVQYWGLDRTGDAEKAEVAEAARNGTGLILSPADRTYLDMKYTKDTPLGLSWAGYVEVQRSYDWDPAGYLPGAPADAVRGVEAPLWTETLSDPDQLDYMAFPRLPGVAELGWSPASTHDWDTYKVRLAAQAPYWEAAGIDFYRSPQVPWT
METHOD DESCRIPTION: SpHex kinetic inhibition assay (4-nitrophenyl N-acetyl-β-D-glucosaminide substrate, competitive model)
Assay type: biochemical
VALUE TYPE: Ki (nM)
Numeric answer only, unit nM assumed.

Ask: Look up Ki: CC(=O)NC1C(O)C(O)C(CO)C1NCCCCCCNS(=O)(=O)c1cccc2c(N(C)C)cccc12 (stereo not drawn)
Result: 0.06

Ask: Note, next up: CCCCCCNC1C(CO)C(O)C(O)C1NC(C)=O (stereo not drawn)
Result: 0.6

Ask: Note, next up: COC(=O)CCCCCNC1C(CO)C(O)C(O)C1NC(C)=O (stereo not drawn)
Result: 0.7

----------
TEST SYSTEM: Streptomyces plicatus N-acetyl-β-hexosaminidase (SpHex) (Streptomyces plicatus)
Construct: made in house; host or cells: E. coli
METHOD DESCRIPTION: SpHex kinetic inhibition assay (4-nitrophenyl N-acetyl-β-D-glucosaminide substrate, competitive model)
Type: biochemical
RUN PARAMETERS: 25 °C, pH 6.0, competitive inhibition model; read-out: Ki-values with SpHex
VALUE TYPE: pKi
Bear in mind: pKi is minus log10 of a mol/L concentration; give just that figure.

Ask: Look up pKi: CC(=O)NC1C(N)C(CO)C(O)C1O (stereo not shown) [compound 20]
Result: 9.15

# credit: paper PMC6017319
